For each record, write down the corresponding IC50.
Target: UniProt:Q95214
Sequence (Q95214 whole entry): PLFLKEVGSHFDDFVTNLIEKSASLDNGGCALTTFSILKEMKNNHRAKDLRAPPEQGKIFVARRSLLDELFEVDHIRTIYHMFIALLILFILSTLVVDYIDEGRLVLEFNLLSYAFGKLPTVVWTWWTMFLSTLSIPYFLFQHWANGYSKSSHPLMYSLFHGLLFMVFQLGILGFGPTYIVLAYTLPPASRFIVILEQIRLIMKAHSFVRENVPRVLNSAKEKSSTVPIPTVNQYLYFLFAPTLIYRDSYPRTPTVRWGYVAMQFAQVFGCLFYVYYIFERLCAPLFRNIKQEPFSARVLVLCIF
Give bare numbers, in nM.

Below, 5 compounds whose answers are already recorded.
CCCCCNC(=O)N(C)c1c(OCCCn2cnc(-c3ccccc3)c2)cccc1N(C)C | 400
CCCCCNC(=O)Nc1c(OCCCn2ncc(-c3ccccc3)n2)cccc1N(C)C | 180
CCCCCNC(=O)Nc1c(OCCCn2cnc(-c3ccc(CCCC)cc3)c2)cccc1N(C)C | 430
CCCCCNC(=O)Nc1c(OCCCn2cnc(-c3ccc(OC)cc3)c2)cccc1N(C)C | 1330
CCCCCNC(=O)Nc1c(OCCCNCCc2ccccc2)cccc1N(C)C | 3440

I'm hoping you can list IC50 for every compound here, please.
1. CCCCCNC(=O)Nc1c(OCCCn2cnc(-c3ccccc3)c2C)ncnc1N(C)C
2. CCCCCC(=O)Nc1c(OCCCn2cnc(-c3ccccc3)c2)cccc1N(C)C
3. CCCNC(=O)Nc1c(OCCCn2cnc(-c3ccccc3)c2)cccc1N(C)C
4. CCCCNC(=O)Nc1c(OCCCn2cnc(-c3ccccc3)c2)cccc1N(C)C
5. CCCCCNC(=O)Nc1c(OCCCn2cnc(-c3ccccc3)c2)cccc1N(C)C
6. CCCCCNC(=O)Nc1c(NCCCn2cnc(-c3ccccc3)c2C)cccc1N(C)C
7. CCCCCNC(=O)Nc1c(OCCCn2nnc(-c3ccccc3)n2)cccc1N(C)C

Key:
[11000, 100, 7230, 810, 160, 2200, 230]

---

Biological target: Acyl-CoA:cholesterol acyltransferase (Oryctolagus cuniculus, UniProt Q95214)
Sequence (Q95214 whole entry): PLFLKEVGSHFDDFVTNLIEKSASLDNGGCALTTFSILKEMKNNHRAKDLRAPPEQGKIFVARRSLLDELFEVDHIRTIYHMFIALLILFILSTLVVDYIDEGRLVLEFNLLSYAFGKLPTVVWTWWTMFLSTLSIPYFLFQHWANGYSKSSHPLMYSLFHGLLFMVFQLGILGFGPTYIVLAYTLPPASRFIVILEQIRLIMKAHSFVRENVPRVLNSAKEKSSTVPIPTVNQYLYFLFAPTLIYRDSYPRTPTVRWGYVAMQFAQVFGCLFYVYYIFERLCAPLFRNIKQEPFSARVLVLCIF
For each record, write down the corresponding pIC50.
One number for each entry, as −log10 of the molar value.

CCCCCCNC(=O)Nc1c(OCCCn2cnc(-c3ccccc3)c2)cccc1N(C)C | 7.30
CCCCCNC(=O)Nc1c(OCCCn2cnc(-c3ccccc3)c2C)cccc1N(C)C | 6.96
CCCCCNC(=O)Nc1c(OCCn2cnc(-c3ccccc3)c2)cccc1N(C)C | 5.85

With those in mind, consider the next compound.
Exercise: Return reported pIC50; argument: CCCCCNC(=O)Nc1c(N(C)C)ccc(C)c1OCCCn1cnc(-c2ccccc2)c1
Key: 6.60

---

For each record, write down the corresponding Surface involvement.
organism: Oryctolagus cuniculus; test: Tested for the atheromatous lesion development in rabbit; type: functional
One number for each entry, in %.

I'm hoping you can list Surface involvement for every compound here, please.
1. CCCCCNC(=O)Nc1c(OCCCn2cnc(-c3ccccc3)c2)cccc1N(C)C
2. CCCCCCNC(=O)Nc1c(OCCCn2cnc(-c3ccccc3)c2)cccc1N(C)C
3. CCCCCNC(=O)Nc1c(OCCCn2cnc(-c3ccccc3)c2C)cccc1N(C)C
4. CCCCNC(=O)Nc1c(OCCCn2cnc(-c3ccccc3)c2)cccc1N(C)C

Key:
22.8
30.6
21
23.5

---

biological target: O-acyltransferase (Oryctolagus cuniculus, UniProt G1SFD9)
Sequence (G1SFD9 1-524): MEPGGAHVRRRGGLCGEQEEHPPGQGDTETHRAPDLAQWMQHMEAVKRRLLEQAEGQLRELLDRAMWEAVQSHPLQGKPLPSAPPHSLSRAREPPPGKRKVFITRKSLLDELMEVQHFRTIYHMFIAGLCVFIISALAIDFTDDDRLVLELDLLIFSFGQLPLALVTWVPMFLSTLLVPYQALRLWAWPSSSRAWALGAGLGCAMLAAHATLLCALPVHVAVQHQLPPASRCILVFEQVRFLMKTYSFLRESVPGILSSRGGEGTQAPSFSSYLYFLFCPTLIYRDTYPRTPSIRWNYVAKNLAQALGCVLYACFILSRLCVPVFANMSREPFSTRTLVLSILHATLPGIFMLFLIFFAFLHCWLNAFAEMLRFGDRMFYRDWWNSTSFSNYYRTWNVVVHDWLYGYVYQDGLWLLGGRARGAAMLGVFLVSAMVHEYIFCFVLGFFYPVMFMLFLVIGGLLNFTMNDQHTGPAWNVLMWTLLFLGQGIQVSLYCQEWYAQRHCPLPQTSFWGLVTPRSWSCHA
Note to self: IC50 under 200 nM means label 1, ties and anything higher get label 0.

CCCCCNC(=O)Nc1c(OCCCn2ncc(-c3ccccc3)n2)cccc1N(C)C | label 1
CN(C)c1cccc(OCCCn2cnc(-c3ccccc3)c2)c1NC(=O)NC1CCCC1 | label 0
CCCCCNC(=O)Nc1c(OCCCn2cnc(-c3ccc(OC)cc3)c2)c(Br)cc(Br)c1N(C)C | label 0

Exercise: Input CCCCCNC(=O)Nc1cccc(OCCCn2cnc(-c3ccccc3)c2C)c1N(C)C ; condition: IC50 strictly below 200 nM. Does it hold?
Key: label 0

Exercise: Input CCCCCNC(=O)Nc1c(OCCCn2cnc(-c3cccc4ccccc34)c2)cccc1N(C)C ; condition: IC50 strictly below 200 nM. Does it hold?
Key: label 1

Exercise: Input CCCCCNC(=O)Nc1c(OCCCn2cnc(C)c2-c2ccccc2)cccc1N(C)C ; condition: IC50 strictly below 200 nM. Does it hold?
Key: label 1

Exercise: Input CCCCCNC(=O)Nc1cc(OCCCn2cnc(-c3ccccc3)c2C)ccc1N(C)C ; condition: IC50 strictly below 200 nM. Does it hold?
Key: label 0

Exercise: Input CCCCCNC(=O)Nc1c(OCCCn2cnc(-c3ccc(CCCC)cc3)c2)cccc1N(C)C ; condition: IC50 strictly below 200 nM. Does it hold?
Key: label 1

Exercise: Input CCCCCNC(=O)N(C)c1c(OCCCn2cnc(-c3ccccc3)c2)cccc1N(C)C ; condition: IC50 strictly below 200 nM. Does it hold?
Key: label 0

Exercise: Input CCCCCNC(=O)Nc1c(OCCCn2cnc3ccccc32)cccc1N(C)C ; condition: IC50 strictly below 200 nM. Does it hold?
Key: label 1

Exercise: Input CCCCCNC(=O)Nc1ccc(OCCCn2cnc(-c3ccccc3)c2C)cc1N(C)C ; condition: IC50 strictly below 200 nM. Does it hold?
Key: label 0

Exercise: Input CCCCCNC(=O)Nc1c(OCCCCn2cnc(-c3ccccc3)c2)cccc1N(C)C ; condition: IC50 strictly below 200 nM. Does it hold?
Key: label 1

Exercise: Input CCCCCNC(=O)Nc1c(OCCCn2ccnc2-c2ccccc2)cccc1N(C)C ; condition: IC50 strictly below 200 nM. Does it hold?
Key: label 0

Exercise: Input CCCCCNC(=O)Nc1c(OCCCn2cnc(-c3ccc(OC)cc3)c2)cccc1N(C)C ; condition: IC50 strictly below 200 nM. Does it hold?
Key: label 1

Exercise: Input CCCCCNC(=O)Nc1c(OCCCn2cnc(-c3ccccc3)c2C)ncnc1N(C)C ; condition: IC50 strictly below 200 nM. Does it hold?
Key: label 0

Exercise: Input CCCCCCNC(=O)Nc1c(OCCCn2cnc(-c3ccccc3)c2)cccc1N(C)C ; condition: IC50 strictly below 200 nM. Does it hold?
Key: label 1

Exercise: Input CCCCCNC(=O)Nc1c(OCCCn2cnc(-c3ccccc3)c2)cccc1N(C)C ; condition: IC50 strictly below 200 nM. Does it hold?
Key: label 1

Exercise: Input CCCCCNC(=O)Nc1c(CCCCn2cnc(-c3ccccc3)c2C)cccc1N(C)C ; condition: IC50 strictly below 200 nM. Does it hold?
Key: label 1

Exercise: Input CCCCCNC(=O)Nc1c(OCCCn2nc3ccccc3n2)cccc1N(C)C ; condition: IC50 strictly below 200 nM. Does it hold?
Key: label 0

Exercise: Input CCCCNC(=O)Nc1c(OCCCn2cnc(-c3ccccc3)c2)cccc1N(C)C ; condition: IC50 strictly below 200 nM. Does it hold?
Key: label 1

---

Target: Acyl-CoA:cholesterol acyltransferase (Oryctolagus cuniculus)
Sequence (Q95214 whole entry): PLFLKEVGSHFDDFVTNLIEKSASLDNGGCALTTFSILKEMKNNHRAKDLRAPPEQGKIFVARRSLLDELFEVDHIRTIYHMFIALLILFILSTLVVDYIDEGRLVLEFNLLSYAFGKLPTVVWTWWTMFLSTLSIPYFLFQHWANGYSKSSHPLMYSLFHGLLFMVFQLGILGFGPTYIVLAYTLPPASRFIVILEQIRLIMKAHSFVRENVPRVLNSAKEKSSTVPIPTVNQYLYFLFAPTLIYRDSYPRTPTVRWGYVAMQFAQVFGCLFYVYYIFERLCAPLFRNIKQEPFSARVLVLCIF
For each record, write down the corresponding IC50.
Answers are plain numbers, in nM.

CCCCCNC(=O)Nc1c(OCCCn2ccnc2-c2ccccc2)cccc1N(C)C | 480
CCCCCNC(=O)Nc1c(OCCCn2nc3ccccc3n2)cccc1N(C)C | 290
CN(C)c1cccc(OCCCn2cnc(-c3ccccc3)c2)c1NC(=O)NC1CCCC1 | 3530
CCCCCNC(=O)Nc1cccc(OCCCn2cnc(-c3ccccc3)c2C)c1N(C)C | 3200

Exercise: Return reported IC50; argument: CCCCCN(C)C(=O)Nc1c(OCCCn2cnc(-c3ccccc3)c2)cccc1N(C)C
Key: 280

All figures here come from ChEMBL document CHEMBL1126706.
